- Procedure Text: basal 3T3-L1 adipocyte mitochondrial potential changes, profiling panel, cell-based, JC-1 fluorescence, 3T3-L1 adipocytes, 24 h, 100 nL compound (AID 1168); also: test concentration not given here
- Test Context: JC-1 mitochondrial fluorescence, higher = more signal, called active from +8 up or from −8 down
The entries below are paired with their reported z-score.
The response must contain the number and no unit.

Please review the entries below; each comes with its answer.
C=CC[C@]1(C(=O)NCc2ccccc2)COC(c2ccc(OCCCO)cc2)=N1; -0.436
O=C(NCCO)C1=C[C@H](Oc2ccccc2I)[C@@H](O)[C@H](NCc2ccc(F)cc2)C1; 0.471
COc1cc2c(cc1O)C(c1ccc(CN3CCCC3)cc1)N(Cc1ccc([N+](=O)[O-])o1)CC2 (stereo not drawn); -2.19
COCCOC(=O)N1C(=O)[C@@]2(c3cc(C#CC4=CCCCC4)ccc31)[C@H](c1ccccc1OCCO)N1[C@H](c3ccccc3)[C@H](c3ccccc3)OC(=O)[C@H]1[C@@H]2C(N)=O; 0.686
CCCCC(O)C1C=CC2C(=O)N(C)C(=O)C2N1Nc1ccccc1 (stereo not drawn); 0.64

Recorded z-score for CO[C@H]1O[C@H](CO)[C@@H](OC(=O)Nc2ccccc2)[C@@H]2OC(=O)[C@H](Cc3ccccc3)C/C=C/C[C@@H](Cc3ccccc3)C(=O)O[C@@H]12 , please?
0.799

Recorded z-score for O=C1C2C=CC(C(O)c3ccc([N+](=O)[O-])cc3)N(Nc3ccccc3)C2C(=O)N1c1ccccc1 (stereo not drawn) , please?
-0.886

Recorded z-score for CN(C)C(=O)[C@]1(Cc2ccccc2)N=C(c2ccc(OCCCO)cc2)O[C@@H]1c1ccccc1 , please?
0.193

Recorded z-score for NCCCC[C@@H]1NC(=O)[C@H]2C[C@@H](C(=O)NCc3ccc(F)cc3)[C@@H](c3ccc(O)cc3)N2C1=O , please?
-0.4

Recorded z-score for CN1C(=O)[C@]2(CCS(=O)(=O)c3ccccc3)N=C(c3ccc(OCCCO)cc3)O[C@@H]2c2ccccc21 , please?
-0.466

Recorded z-score for COc1ccc([Si](C)(C)[C@@H]2[C@@H](CCO)O[C@]3(C(=O)N(Cc4ccccc4)c4ccc(N5C(=O)c6ccccc6Oc6ccccc65)cc43)[C@H]2C)cc1 , please?
-0.735

Recorded z-score for C=CCC(OC(C)=O)[C@@H]1[C@@H](N(Cc2cc3ccccc3o2)C(=O)c2ccc(-c3ccccc3)cc2)c2cc(OCCCO)ccc2N1C(=O)c1ccc2ccccc2n1 (stereo partly drawn) , please?
0.229

Recorded z-score for COc1ccc(CCNC(=O)[C@@]2(Sc3ccc(C)cc3)CC(=O)N(C(C)C)[C@@H]2c2ccc(CO)cc2)cc1 , please?
0.0372

Recorded z-score for CC(C)CNC(=O)[C@@H]1c2ccccc2C(=O)N(CC23CC4CC(CC(C4)C2)C3)[C@H]1c1ccc(CO)cc1 , please?
1.64

Recorded z-score for CN1C(=O)C2C(C1=O)C1C=C(c3ccc(CO)cc3)C2C(c2cccs2)N1C (stereo not drawn) , please?
-0.42

Recorded z-score for COC(=O)[C@@]1(CCC(=O)OC(C)(C)C)N=C(c2ccc(OCCCO)cc2)O[C@H]1c1ccccc1CN=[N+]=[N-] , please?
-0.472

Recorded z-score for NCCCC[C@@H]1NC(=O)[C@H]2C[C@@H](C(=O)O)[C@@H](c3cccc(OCCO)c3)N2C1=O , please?
0.0425
